- Target Or System: Muscarinic acetylcholine receptor M3 (Homo sapiens)
- Sequence (P20309 whole entry): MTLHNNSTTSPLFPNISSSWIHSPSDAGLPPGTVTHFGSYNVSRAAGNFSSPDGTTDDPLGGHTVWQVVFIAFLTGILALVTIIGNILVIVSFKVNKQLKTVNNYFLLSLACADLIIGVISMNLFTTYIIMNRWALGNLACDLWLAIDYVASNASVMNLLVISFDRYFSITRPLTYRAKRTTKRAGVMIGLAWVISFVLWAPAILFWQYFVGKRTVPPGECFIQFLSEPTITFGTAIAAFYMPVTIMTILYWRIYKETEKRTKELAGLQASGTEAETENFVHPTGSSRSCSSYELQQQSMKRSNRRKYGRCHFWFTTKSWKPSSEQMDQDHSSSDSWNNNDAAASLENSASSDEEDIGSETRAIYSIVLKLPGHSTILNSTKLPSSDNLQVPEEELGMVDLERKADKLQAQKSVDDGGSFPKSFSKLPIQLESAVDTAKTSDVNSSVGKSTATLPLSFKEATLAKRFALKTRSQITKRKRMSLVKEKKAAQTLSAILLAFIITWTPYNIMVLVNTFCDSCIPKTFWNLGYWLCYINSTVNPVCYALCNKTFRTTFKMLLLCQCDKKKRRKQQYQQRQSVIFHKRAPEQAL
- Assay Protocol: Antagonist activity at recombinant human muscarinic M3 receptor expressed in CHO-K1 cells assessed as inhibition of acetylcholine induced calcium mobilization preincubated for 10 mins followed by acetylcholine addition measured after 1 hr by fluo-4 AM dye-based FLIPR assay
Below, each entry is listed with its recorded pKi.
Just the number, please; pKi means minus log10 of the concentration in mol/L.

Sample records with pKi:
| Molecule | Measurement Label | Endpoint Value |
| --- | --- | --- |
| Cn1c(SCCCN2CC3CCN(c4ccc(C(F)(F)F)cc4)C3C2)nnc1-c1cc[nH]c(=O)c1 (stereo in doubt; 55b) | pKi | 5.96 |
| Cn1c(SCCCN2CC3CCN(c4ccc(C(F)(F)F)cc4)C3C2)nnc1-c1ccc(=O)n(C)c1 (stereo in doubt; 57b) | pKi | 6.32 |
| Cn1c(SCCCN2CC3CCN(c4ccccc4C(F)(F)F)C3C2)nnc1-c1cccnc1 (stereo in doubt; 52a) | pKi | 5.66 |

## Input Provide pKi, system Muscarinic acetylcholine receptor M3 (Homo sapiens), entry Cn1c(SCCCN2CC3CCN(c4ccccc4)C3C2)nnc1C1CCOCC1 (stereo in doubt; 62a)
## Output 5.84

## Input Provide pKi, system Muscarinic acetylcholine receptor M3 (Homo sapiens), entry Cc1ncoc1-c1nnc(SCCCN2CC3CCN(c4ccccc4)C3C2)n1C (stereo in doubt; 6b)
## Output 5.90

## Input Provide pKi, system Muscarinic acetylcholine receptor M3 (Homo sapiens), entry Cc1ncoc1-c1nnc(SCCCN2CC3CCN(c4ccc(C(F)(F)F)cc4F)C3C2)n1C (stereo in doubt; 8b)
## Output 6.61

---

- Assay Protocol: Fraction unbound in Sprague-Dawley rat blood
Please assign no (0) whenever fraction unbound is at or above 0.02, and yes (1) whenever it is below.

Some entries whose results are on file:
| Compound | Class Assignment |
| --- | --- |
| CC(C)Oc1ccccc1N1CCC2CN(CCCSc3nnc(-c4cnccn4)n3C)CC21 (stereo in doubt; 35b) | no (0) |
| Cn1c(SCCCN2CC3CCN(c4ccccc4)C3C2)nnc1C1CCOCC1 (stereo in doubt; 62a) | no (0) |
| Cc1ncoc1-c1nnc(SCCCN2CC3CCN(c4ccc(F)cc4)C3C2)n1C (stereo in doubt; 9a) | no (0) |
| Cn1c(SCCCN2CC3CCN(c4ccc(C(F)(F)F)cc4)C3C2)nnc1-c1cc[nH]c(=O)c1 (stereo in doubt; 55b) | no (0) |

## Input Determine if Cc1ncoc1-c1nnc(SCCCN2CC3CCN(c4ccc(C(F)(F)F)cc4F)C3C2)n1C (stereo in doubt; 8b) shows fraction unbound strictly lower than 0.02.
## Output yes (1)

---

Below, each entry is listed with its recorded pIC50.
- Target Or System: Voltage-gated inwardly rectifying potassium channel KCNH2 (Homo sapiens, UniProt Q12809)
- Sequence (Q12809 whole entry): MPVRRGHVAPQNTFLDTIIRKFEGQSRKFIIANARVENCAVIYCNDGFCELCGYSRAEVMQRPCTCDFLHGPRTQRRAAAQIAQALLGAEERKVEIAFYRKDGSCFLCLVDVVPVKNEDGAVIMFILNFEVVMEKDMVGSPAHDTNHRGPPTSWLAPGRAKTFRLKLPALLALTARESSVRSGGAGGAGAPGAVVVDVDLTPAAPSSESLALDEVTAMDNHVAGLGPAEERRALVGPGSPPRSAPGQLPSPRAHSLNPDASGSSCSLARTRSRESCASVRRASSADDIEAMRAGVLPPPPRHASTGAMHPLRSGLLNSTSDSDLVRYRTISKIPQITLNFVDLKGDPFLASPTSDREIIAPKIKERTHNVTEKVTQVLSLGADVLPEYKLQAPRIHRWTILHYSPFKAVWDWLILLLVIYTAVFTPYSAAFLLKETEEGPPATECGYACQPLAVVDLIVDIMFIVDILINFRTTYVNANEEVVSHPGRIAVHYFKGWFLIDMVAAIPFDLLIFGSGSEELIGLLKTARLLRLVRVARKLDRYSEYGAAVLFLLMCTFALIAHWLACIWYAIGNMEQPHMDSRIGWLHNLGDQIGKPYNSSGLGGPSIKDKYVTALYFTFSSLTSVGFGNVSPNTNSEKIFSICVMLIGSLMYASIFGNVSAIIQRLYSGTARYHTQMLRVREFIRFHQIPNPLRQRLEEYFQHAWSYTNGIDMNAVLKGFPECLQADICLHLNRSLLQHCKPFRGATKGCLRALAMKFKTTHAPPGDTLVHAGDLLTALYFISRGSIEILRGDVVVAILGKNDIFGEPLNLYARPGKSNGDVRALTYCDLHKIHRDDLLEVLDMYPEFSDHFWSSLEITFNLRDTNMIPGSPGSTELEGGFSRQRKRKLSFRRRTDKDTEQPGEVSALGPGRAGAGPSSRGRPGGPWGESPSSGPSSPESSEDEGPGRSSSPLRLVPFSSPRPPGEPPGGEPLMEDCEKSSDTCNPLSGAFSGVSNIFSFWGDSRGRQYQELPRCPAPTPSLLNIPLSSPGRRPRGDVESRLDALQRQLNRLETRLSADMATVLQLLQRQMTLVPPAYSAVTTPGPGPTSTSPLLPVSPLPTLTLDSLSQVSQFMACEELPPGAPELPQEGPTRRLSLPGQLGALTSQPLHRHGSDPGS
- Assay Protocol: Inhibition of human ERG tail current expressed in HEK293 cells after 5 mins by patch clamp assay
Just the number, please; pIC50 means minus log10 of the concentration in mol/L.

Sample records with pIC50:
| Compound | Endpoint Value |
| --- | --- |
| Cc1ncoc1-c1nnc(SCCCN2CC3CN(c4ccc(C(F)(F)F)cc4)C3C2)n1C (racemic) | 6.20 |
| Cn1c(SCCCN2CC3CCN(c4ccc(C(F)(F)F)cc4)C3C2)nnc1-c1cc[nH]c(=O)c1 (racemic) | 5.90 |
| Cn1c(SCCCN2CC3CCN(c4ccc(C(F)(F)F)cc4)C3C2)nnc1-c1ccc(=O)[nH]c1 (racemic) | 6.00 |
| Cn1c(SCCCN2CC3CCN(c4ccc(C(F)(F)F)cc4)C3C2)nnc1-c1cc[nH]c(=O)c1 (stereo in doubt; 55b) | 5.60 |

Now consider the entry below.
## Input Provide pIC50, system Voltage-gated inwardly rectifying potassium channel KCNH2 (Homo sapiens, UniProt Q12809), entry Cc1ncoc1-c1nnc(SCCCN2CC3CCN(c4cccc(F)c4)C3C2)n1C (racemic)
## Output 6.60

meta.source: ChEMBL document CHEMBL3774368
